Reference for the values: patent US8158811B2

Listing of entries alongside the reported Induction Factor vs Control (CaCl2 1.2 mM) TG1.
- System: transglutaminase 1 (TG1)
- experimentNotes: keratinocyte differentiation, real-time RT-PCR of transglutaminase 1 transcripts
- Assay type: cell-based, human
- testContext: 1 μg/ml, NHK, 48 hours
- Text: Normal human keratinocytes (NHK) proliferate and differentiate in vitro, forming stratified layers which mimic the basal organisation of the skin. […] Keratinocyte differentiation can then be evaluated by studying the expression of several markers such as keratins 1 and 10, transglutaminase 1, desaturase DES2, involucrine, FATP4 and ABCG1 transporters. We therefore evaluated the effect of certain hydroxyalcene carboxylic acids in an in vitro culture model. […]
parameter: Induction Factor vs Control (CaCl2 1.2 mM) TG1

- compound: "O=C(O)C(F)=CCCCCCCCCCCCCCCO [n=13, R=H, Rn=H, R1=F]"
  measuredValue: 4.2
- compound: "O=C(O)/C=C/CCCCCCCO [n=6, R=H, Rn=H, R1=H, DHA]"
  measuredValue: 1.1
- compound: "O=C(O)C(F)=CCCCCCCCCCCCCCCCO (mixture of isomers) [n=14, R=H, Rn=H, R1=F]"
  measuredValue: 1.7
- compound: "O=C(O)C=CCCCCCO [n=4, R=H, Rn=H, R1=H]"
  measuredValue: 1.2
- compound: "O=C(O)/C=C/CCCCCCCCCCCCCCO [n=13, R=H, Rn=H, R1=H, 17-hydroxy-heptadec-2t-enoic acid]"
  measuredValue: 1.4
- compound: "O=C(O)C(F)=CCCCCCCCO [n=6, R=H, Rn=H, R1=F, 10-hydroxy-dec-2-fluoro-2 enoic acid]"
  measuredValue: 1.2
- compound: "O=C(O)C(F)=CCCCCO (mixture of isomers) [n=3, R=H, Rn=H, R1=F]"
  measuredValue: 1.5
- compound: "O=C(O)/C=C/CCCCCCCCCCO [n=9, R=H, Rn=H, R1=H, 13-hydroxy-tridec-2t-enoic acid]"
  measuredValue: 1.4

====

- System: ABCG1
- experimentNotes: keratinocyte differentiation, real-time RT-PCR of ABCG1 transcripts
- Format: cell-based, human
- testContext: 1 μg/ml, NHK, 48 hours
Grouping rule (Induction Factor vs Control (CaCl2 1.2 mM) ABCG1): low = under 2, medium = from 2 up to 3, high = 3 and over

- compound: "O=C(O)C(F)=CCCCCCCCCCCCO"
  assayedSystem: "ABCG1"
  labelClass: "low"
- compound: "O=C(O)/C=C/CCCCCCCCCCCO [n=10, R=H, Rn=H, R1=H, 14-hydroxy-tetradec-2t-enoic acid]"
  assayedSystem: "ABCG1"
  labelClass: "low"
- compound: "O=C(O)C(F)=CCCCCCCCCCCCCCCO"
  assayedSystem: "ABCG1"
  labelClass: "high"
- compound: "O=C(O)C=CCCCCO"
  assayedSystem: "ABCG1"
  labelClass: "low"
- compound: "O=C(O)/C=C/CCCCCCCO"
  assayedSystem: "ABCG1"
  labelClass: "low"
- compound: "O=C(O)C(F)=CCCCCCCCO [n=6, R=H, Rn=H, R1=F, 10-hydroxy-dec-2-fluoro-2 enoic acid]"
  assayedSystem: "ABCG1"
  labelClass: "low"
- compound: "O=C(O)C(F)=CCCCCCO (mixture of isomers)"
  assayedSystem: "ABCG1"
  labelClass: "medium"
- compound: "O=C(O)C(F)=CCCCCCCCCCCCCCCCO (mixture of isomers)"
  assayedSystem: "ABCG1"
  labelClass: "high"
- compound: "O=C(O)C(F)=CCCCCO (mixture of isomers)"
  assayedSystem: "ABCG1"
  labelClass: "low"
- compound: "O=C(O)C=CCCCCCO"
  assayedSystem: "ABCG1"
  labelClass: "low"
- compound: "O=C(O)/C=C/CCCCCCO [n=5, R=H, Rn=H, R1=H, 9-hydroxy-nona-2t-enoic acid]"
  assayedSystem: "ABCG1"
  labelClass: "medium"
- compound: "O=C(O)/C=C/CCCCCCCCCCO [n=9, R=H, Rn=H, R1=H, 13-hydroxy-tridec-2t-enoic acid]"
  assayedSystem: "ABCG1"
  labelClass: "low"

====

- Tested on: prostaglandin 6KF1α
- experimentNotes: production of prostaglandin 6KF1α by keratinocytes stimulated with calcium ionophore A23187 (ELISA)
- Type: cell-based
- testContext: 3 μg/ml, A23187 1 μm 5 hours
parameter: % inhibiting activity of evaluated molecules on the production of PG6KF1α Inflammation (%)

- compound: "O=C(O)/C=C/CCCCCCCCCO [n=8, R=H, Rn=H, R1=H, 12-hydroxy-dodeca-2t-enoic acid]"
  measuredValue: 32
- compound: "O=C(O)C(F)=CCCCCCCCCCO [n=8, R=H, Rn=H, R1=F, 12-hydroxy-dodeca-2-fluoro-2-enoic acid]"
  measuredValue: 44
- compound: "O=C(O)C(F)=CCCCCCO (mixture of isomers)"
  measuredValue: 30
- compound: "O=C(O)C=CCCCCO"
  measuredValue: 29
- compound: "O=C(O)/C=C/CCCCCCCCCCO [n=9, R=H, Rn=H, R1=H, 13-hydroxy-tridec-2t-enoic acid]"
  measuredValue: 31
- compound: "O=C(O)C(F)=CCCCCCCCCCCCCCCO"
  measuredValue: 14
- compound: "O=C(O)/C=C/CCCCCCCCCCCCCCO [n=13, R=H, Rn=H, R1=H, 17-hydroxy-heptadec-2t-enoic acid]"
  measuredValue: 25
- compound: "O=C(O)C(F)=CCCCCCCCCCCCO"
  measuredValue: 18

====

- System: transglutaminase 1 (TG1)
- experimentNotes: keratinocyte differentiation, real-time RT-PCR of transglutaminase 1 transcripts
- Assay type: cell-based, human
- testContext: 100 μg/ml, NHK, 48 hours
Listing of entries alongside the reported Induction Factor vs Control (CaCl2 1.2 mM) TG1.
parameter: Induction Factor vs Control (CaCl2 1.2 mM) TG1

- molecule: "O=C(O)C(F)=CCCCCCO (mixture of isomers)"
  measuredValue: 1.7
- molecule: "O=C(O)C=CCCCCCO"
  measuredValue: 1.7
- molecule: "O=C(O)C(F)=CCCCCCCCCCCCO"
  measuredValue: 3.5
- molecule: "O=C(O)C(F)=CCCCCO (mixture of isomers)"
  measuredValue: 0.9
- molecule: "O=C(O)/C=C/CCCCCCCO"
  measuredValue: 12.3
- molecule: "O=C(O)C(F)=CCCCCCCCO [n=6, R=H, Rn=H, R1=F, 10-hydroxy-dec-2-fluoro-2 enoic acid]"
  measuredValue: 7.8
- molecule: "O=C(O)/C=C/CCCCCCCCCCO [n=9, R=H, Rn=H, R1=H, 13-hydroxy-tridec-2t-enoic acid]"
  measuredValue: 14.8
- molecule: "O=C(O)C=CCCCCO"
  measuredValue: 2.6
- molecule: "O=C(O)/C=C/CCCCCCCCCCCO [n=10, R=H, Rn=H, R1=H, 14-hydroxy-tetradec-2t-enoic acid]"
  measuredValue: 31.4

====

- System: desaturase DES2
- experimentNotes: keratinocyte differentiation, real-time RT-PCR of DES2 transcripts
- Assay type: cell-based, human
- testContext: 1 μg/ml, NHK, 48 hours
Listing of entries alongside the reported Induction Factor vs Control (CaCl2 1.2 mM) DES2.
parameter: Induction Factor vs Control (CaCl2 1.2 mM) DES2

- molecule: "O=C(O)/C=C/CCCCCCCCCCCCCCO [n=13, R=H, Rn=H, R1=H, 17-hydroxy-heptadec-2t-enoic acid]"
  measuredValue: 3.0
- molecule: "O=C(O)C(F)=CCCCCO (mixture of isomers) [n=3, R=H, Rn=H, R1=F]"
  measuredValue: 1.7
- molecule: "O=C(O)C(F)=CCCCCCCCCCCCCCCCO (mixture of isomers) [n=14, R=H, Rn=H, R1=F]"
  measuredValue: 2.8
- molecule: "O=C(O)/C=C/CCCCCCO [n=5, R=H, Rn=H, R1=H, 9-hydroxy-nona-2t-enoic acid]"
  measuredValue: 1.8
- molecule: "O=C(O)/C=C/CCCCCCCO [n=6, R=H, Rn=H, R1=H, DHA]"
  measuredValue: 1.7
- molecule: "O=C(O)C(F)=CCCCCCCCCCCCCCCO [n=13, R=H, Rn=H, R1=F]"
  measuredValue: 9.0
- molecule: "O=C(O)/C=C/CCCCCCCCCCCO [n=10, R=H, Rn=H, R1=H, 14-hydroxy-tetradec-2t-enoic acid]"
  measuredValue: 2.0
- molecule: "O=C(O)C=CCCCCO [n=3, R=H, Rn=H, R1=H]"
  measuredValue: 1.6
- molecule: "O=C(O)C=CCCCCCO [n=4, R=H, Rn=H, R1=H]"
  measuredValue: 1.0
- molecule: "O=C(O)C(F)=CCCCCCCCCCCCO [n=10, R=H, Rn=H, R1=F]"
  measuredValue: 1.6
- molecule: "O=C(O)C(F)=CCCCCCO (mixture of isomers) [n=4, R=H, Rn=H, R1=F]"
  measuredValue: 2.2
- molecule: "O=C(O)C(F)=CCCCCCCCO [n=6, R=H, Rn=H, R1=F, 10-hydroxy-dec-2-fluoro-2 enoic acid]"
  measuredValue: 1.3
- molecule: "O=C(O)/C=C/CCCCCCCCCCO [n=9, R=H, Rn=H, R1=H, 13-hydroxy-tridec-2t-enoic acid]"
  measuredValue: 1.8
